Recorded values, source patent US20220348558A1.

system: WEEV California; test: microbe, parasite or virus in culture; type: cell-based; settings: Western equine encephalitis virus, Vero 76, 48 h, read-out: WEEV California EC50 nM
REPORTED ENDPOINT: EC50

COCCOc1ccc(-c2cc(C#N)cc3c(=O)n(-c4ccc(OC)c(F)c4)c(C4CCCN4)nc23)cc1 (stereo not drawn) [Example 154] ... 1 to 50 nM
COc1ccc(-n2c([C@H]3CCCN3)nc3c(C)cc([N+](=O)[O-])cc3c2=O)cc1 [Example 55] ... 1 to 50 nM
COc1ccc(-n2c([C@]3(C)CCCN3)nc3c(-c4ccc(C)nc4)cc(C#N)cc3c2=O)cc1F [Example 142] ... 1 to 50 nM
COc1ccc(-n2c(C3CCCN3C)nc3c(-c4ccc(C)nc4)cc(C#N)cc3c2=O)cc1F (stereo not drawn) [Example 111] ... 1 to 50 nM
COc1ccc(-n2c(C3CCCN3)nc3c(-c4ccc(OC)c(OC)c4)cc(C#N)cc3c2=O)cc1F (stereo not drawn) [Example 152] ... 1 to 50 nM
COc1c(F)cc(-n2c(C34CC(CN3)C4)nc3c(-c4ccc(C)nc4)cc(C#N)cc3c2=O)cc1F [Example 175] ... 51 to 150 nM
COc1ccc(-n2c([C@@H]3CCCN3)nc3c(-c4cccnc4)cc([N+](=O)[O-])cc3c2=O)cc1F [Example 83] ... 1 to 50 nM
COc1ccc(-n2c([C@@H]3CCNC3)nc3c(C)cc([N+](=O)[O-])cc3c2=O)cc1F [Example 67] ... 151 to 500 nM
COc1ccc(-n2c([C@H]3CCCN3C)nc3c(-c4ccoc4)cc(C#N)cc3c2=O)cc1F [Example 115] ... 1 to 50 nM
COc1ccc(-n2c([C@H]3CCCN3)nc3ccc(C#N)cc3c2=O)cc1 [Example 14] ... 51 to 150 nM
COc1ccc(-n2c(C3CCCN3)nc3c(C#Cc4ccc(C)nc4)cc(C#N)cc3c2=O)cc1F (stereo not drawn) [Example 194] ... 51 to 150 nM
COc1ccc(-n2c([C@H]3CCC(=O)N3)nc3c(-c4ccc(C)nc4)cc(C#N)cc3c2=O)cc1F [Example 121] ... > 1000 nM
COCCOc1c(F)cc(-n2c(C3CCCN3)nc3c(-c4cc(C)nc(C)c4)cc(C#N)cc3c2=O)cc1F (stereo not drawn) [Example 162] ... 51 to 150 nM
COc1ccc(-n2c(C3CCCN3)nc3c(-c4ccc(N5CCN(C)CC5)nc4)cc(C#N)cc3c2=O)cc1F (stereo not drawn) [Example 132] ... 1 to 50 nM
COc1ccc(-n2c(-c3cncn3C)nc3c(-c4ccc(C)nc4)cc(C#N)cc3c2=O)cc1F [Example 201] ... > 1000 nM

---

tested on: WEEV California; assay: microbe, parasite or virus in culture; type: cell-based; settings: Western equine encephalitis virus, Vero 76, 48 h, read-out: WEEV California EC50 nM
REPORTED ENDPOINT: EC50

COc1ccc(-n2c(-c3ccccn3)nc3c(-c4ccc(C)nc4)cc(C#N)cc3c2=O)cc1F [Example 196] ... > 1000 nM
COc1ccc(-n2c([C@H]3CCCN3)nc3cc(C)c([N+](=O)[O-])cc3c2=O)cc1 [Example 43] ... 1 to 50 nM
COc1ccc(-n2c([C@@H]3CCNC3)nc3ccc([N+](=O)[O-])cc3c2=O)cc1 [Example 19] ... 151 to 500 nM

---

Entries and their EC50
tested on: WEEV California; assay: microbe, parasite or virus in culture; type: cell-based; conditions: Western equine encephalitis virus, Vero 76, 48 h, read-out: WEEV California EC50 nM
REPORTED ENDPOINT: EC50

COc1ccc(-n2c([C@H]3CCCN3)nc3c(-c4ccnc(F)c4)cc([N+](=O)[O-])cc3c2=O)cc1F ... 1 to 50 nM
COc1ccc(-n2c([C@H]3CCCN3)nc3c(-c4ccc(F)nc4)cc([N+](=O)[O-])cc3c2=O)cc1F ... 1 to 50 nM
COc1cccc(-n2c(C3CCCN3)nc3ccc([N+](=O)[O-])cc3c2=O)c1 (stereo not shown) ... > 1000 nM
COc1ccc(-n2c([C@H]3CCCN3)nc3c(-c4ccc(C)nc4)cc(C#N)cc3c2=O)cc1F ... 1 to 50 nM
Cc1ccc(-c2cc(C#N)cc3c(=O)n(-c4ccc(N(C)C)c(F)c4)c(C4CCCN4)nc23)cn1 (stereo not shown) ... 151 to 500 nM
Cc1cc(-c2cc(C#N)cc3c(=O)n(-c4cc(F)c(N5CC6(COC6)C5)c(F)c4)c(C4CCCN4)nc23)cc(C)n1 (stereo not shown) ... > 1000 nM
N#Cc1ccc(-n2c([C@H]3CCCN3)nc3ccc([N+](=O)[O-])cc3c2=O)cc1 ... 51 to 150 nM
COc1ccc(-n2c([C@H]3CCCN3)nc3c(-c4cncnc4)cc(C#N)cc3c2=O)cc1F ... 151 to 500 nM
COc1ccc(-n2c([C@H]3CCCN3)nc3c(-c4ccc(C(F)(F)F)nc4)cc([N+](=O)[O-])cc3c2=O)cc1F ... 1 to 50 nM
O=c1c2cc([N+](=O)[O-])ccc2nc([C@H]2CCCN2)n1-c1ccccc1 ... 51 to 150 nM
COc1ccc(-n2c([C@H]3CCCN3)nc3c(-c4cncc(F)c4)cc(C#N)cc3c2=O)cc1F ... 1 to 50 nM
COc1ccc(-n2c([C@H]3C[C@H](O)CN3)nc3c(-c4ccc(C)nc4)cc(C#N)cc3c2=O)cc1F ... 51 to 150 nM
COc1ccc(-n2c(C3CCCN3)nc3ccc([N+](=O)[O-])cc3c2=O)cc1 (stereo not shown) ... 1 to 50 nM
CN[C@H](C)c1nc2ccc([N+](=O)[O-])cc2c(=O)n1-c1ccc(OC)cc1 ... 151 to 500 nM
COc1ccc(-n2c([C@H]3CCCN3)nc3c(C)cc(C#N)cc3c2=O)cc1F ... 1 to 50 nM
COc1ccc(-n2c([C@@H]3CCCN3)nc3c(Br)cc(C#N)cc3c2=O)cc1F ... 1 to 50 nM
COc1c(F)cc(-n2c(C3CCCN3)nc3c(-c4ccc(CO)nc4)cc(C#N)cc3c2=O)cc1F (stereo not shown) ... 1 to 50 nM
COc1ccc(-n2c([C@H]3CCCN3)nc3c(-c4cncnc4)cc([N+](=O)[O-])cc3c2=O)cc1F ... 1 to 50 nM
COc1c(F)cc(-n2c(C3CCCN3)nc3c(-c4ccc(C#CC(C)(C)O)cc4)cc(C#N)cc3c2=O)cc1F (stereo not shown) ... 51 to 150 nM
COc1ccc(-n2c([C@H]3CCCN3)nc3c(C(F)(F)F)cc(C#N)cc3c2=O)cc1 ... 1 to 50 nM
COc1ccc(-n2c([C@H]3CCCN3)nc3cc([N+](=O)[O-])ccc3c2=O)cc1 ... > 1000 nM
COc1ccc(-n2c(C3CCCN3)nc3c(-c4ccc(N5CCCC5)nc4)cc(C#N)cc3c2=O)cc1F (stereo not shown) ... 51 to 150 nM
